Target: hSTING (Homo sapiens, UniProt Q86WV6, G230A/H232R/R293Q/R71H)
Sequence (Q86WV6 whole entry R71H/G230A/H232R/R293Q): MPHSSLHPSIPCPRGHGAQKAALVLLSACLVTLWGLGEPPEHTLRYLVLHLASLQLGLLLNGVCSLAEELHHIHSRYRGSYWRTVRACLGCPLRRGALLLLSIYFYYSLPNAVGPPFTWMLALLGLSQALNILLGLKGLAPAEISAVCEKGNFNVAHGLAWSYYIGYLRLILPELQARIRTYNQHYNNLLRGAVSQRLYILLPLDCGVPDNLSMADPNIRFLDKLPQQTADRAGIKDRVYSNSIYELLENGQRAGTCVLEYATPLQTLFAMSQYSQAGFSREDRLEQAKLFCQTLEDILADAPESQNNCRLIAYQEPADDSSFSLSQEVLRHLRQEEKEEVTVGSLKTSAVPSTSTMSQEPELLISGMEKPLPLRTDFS
Experiment: STING reporter assay (luciferase) in THP1-Dual KO-IFNAR2 cells stimulated with 2'3'cGAMP
Details: 2'3'cGAMP 15 μM, 24 h, luciferase reporter activity
pEC50: −log10 of the molar value.
Task for the reader: assign each of the following molecules its reported pEC50.

Incoming: For hSTING (Homo sapiens, UniProt Q86WV6, G230A/H232R/R293Q/R71H), provide pEC50 of O=C(Nc1ccc(C2CC(F)(F)C2)c(Cl)c1)Nc1c[nH]c2cc(F)c(F)cc12 please.
Outgoing: 6.00 to 6.70

Incoming: Request body: readout pEC50, system hSTING (Homo sapiens, UniProt Q86WV6, G230A/H232R/R293Q/R71H), query O=C(Nc1cnn(CC2CCC2)c1)Nc1c[nH]c2ccc(Cl)cc12 . Return the value.
Outgoing: 6.00 to 6.70

Incoming: API: value(readout= pEC50, system= hSTING (Homo sapiens, UniProt Q86WV6, G230A/H232R/R293Q/R71H), query= O=C(Nc1ccn(C2CCC(F)(F)CC2)n1)Nc1c[nH]c2ccc(F)cc12 )
Outgoing: 5.30 to 6.00

Incoming: Recorded pEC50 for O=C(Nc1cnc(N2CCN(CC3CC3)CC2)c(Cl)c1)Nc1c[nH]c2ccc(Cl)cc12 with hSTING (Homo sapiens, UniProt Q86WV6, G230A/H232R/R293Q/R71H), please?
Outgoing: 6.70 to 7.40

---

Molecular target: hSTING (Homo sapiens, UniProt Q86WV6, G230A/H232R/R293Q/R71H)
Test: STING reporter assay (luciferase) in THP1-Dual KO-IFNAR2 cells stimulated with 2'3'cGAMP
Settings: 2'3'cGAMP 15 μM, 24 h, luciferase reporter activity
OBSERVED_PROPERTY: EC50

Incoming: Value wanted: EC50 (hSTING (Homo sapiens, UniProt Q86WV6, G230A/H232R/R293Q/R71H)) of entry COCCC1CCN(c2ncc(NC(=O)Nc3c[nH]c4cc(F)c(F)cc34)cc2Cl)CC1
Outgoing: 40 to 200 nM

Incoming: Form field - read-out: EC50; system: hSTING (Homo sapiens, UniProt Q86WV6, G230A/H232R/R293Q/R71H); submitted item: Cc1cc(NC(=O)Nc2c[nH]c3ccc(F)cc23)cnc1N1CCC(F)(F)CC1
Outgoing: 40 to 200 nM

Incoming: Write down the reported EC50 of CCc1cc(NC(=O)Nc2c[nH]c3ccc(F)cc23)cnc1N1CCC(F)(F)CC1 , test system: hSTING (Homo sapiens, UniProt Q86WV6, G230A/H232R/R293Q/R71H).
Outgoing: 40 to 200 nM

Incoming: Provide value of EC50 for this record tested with hSTING (Homo sapiens, UniProt Q86WV6, G230A/H232R/R293Q/R71H): CCN(C(=O)Nc1c[nH]c2ccc(Cl)cc12)c1cnc(C2CCN(CC(F)(F)F)CC2)c(Cl)c1
Outgoing: 200 to 1000 nM

Incoming: What is its EC50 for hSTING (Homo sapiens, UniProt Q86WV6, G230A/H232R/R293Q/R71H)? Entry: O=C(Nc1cnc(N2CCC(F)(F)CC2)c(Cl)c1)Nc1c[nH]c2ccc(Cl)cc12
Outgoing: 40 to 200 nM

Incoming: What is its EC50 for hSTING (Homo sapiens, UniProt Q86WV6, G230A/H232R/R293Q/R71H)? Entry: O=C(Nc1cnc(C2CC(F)(F)C2)c(Cl)c1)Nc1c[nH]c2ccc(F)cc12
Outgoing: 40 to 200 nM

---

Biological target: hSTING (Homo sapiens, UniProt Q86WV6, G230A/H232R/R293Q/R71H)
Experiment: STING reporter assay (luciferase) in THP1-Dual KO-IFNAR2 cells stimulated with 2'3'cGAMP
Conditions: 2'3'cGAMP 15 μM, 24 h, luciferase reporter activity
OBSERVED_PROPERTY: EC50

Incoming: Lab note: need EC50 with hSTING (Homo sapiens, UniProt Q86WV6, G230A/H232R/R293Q/R71H) for entry O=C(Nc1cnc(N2CCC3(CC2)CC3(F)F)c(Cl)c1)Nc1c[nH]c2cc(F)c(F)cc12 , please look it up.
Outgoing: 40 to 200 nM

Incoming: For hSTING (Homo sapiens, UniProt Q86WV6, G230A/H232R/R293Q/R71H), provide EC50 of N#Cc1cc(NC(=O)Nc2c[nH]c3cc(F)c(F)cc23)cnc1N1CCC(F)(F)CC1 please.
Outgoing: 40 to 200 nM

Incoming: Which EC50 is reported with hSTING (Homo sapiens, UniProt Q86WV6, G230A/H232R/R293Q/R71H) for this entry: O=C(Nc1cnc(C2CCC(F)(F)CC2)c(Cl)c1)Nc1c[nH]c2cc(Cl)ccc12 ?
Outgoing: 1000 to 5000 nM

Incoming: For hSTING (Homo sapiens, UniProt Q86WV6, G230A/H232R/R293Q/R71H), provide EC50 of Cc1cc(NC(=O)Nc2c[nH]c3cc(F)c(F)cc23)cnc1N1CCO[C@@H](C)C1 please.
Outgoing: 200 to 1000 nM

Incoming: Quick check: EC50 on hSTING (Homo sapiens, UniProt Q86WV6, G230A/H232R/R293Q/R71H), item N#Cc1cc(NC(=O)Nc2c[nH]c3ccc(Cl)cc23)cnc1C1CC(F)(F)C1 ?
Outgoing: 40 to 200 nM

Incoming: Form field - read-out: EC50; system: hSTING (Homo sapiens, UniProt Q86WV6, G230A/H232R/R293Q/R71H); submitted item: N#Cc1cc(NC(=O)Nc2c[nH]c3ccccc23)ccc1C1CCC(F)(F)CC1
Outgoing: 40 to 200 nM

Incoming: So what EC50 did O=C(Nc1cnc(C2CCN(CC(F)(F)F)C2)c(Cl)c1)Nc1c[nH]c2ccc(Cl)cc12 (centres unmarked) get with hSTING (Homo sapiens, UniProt Q86WV6, G230A/H232R/R293Q/R71H)?
Outgoing: 40 to 200 nM

Incoming: Lookup: EC50 / hSTING (Homo sapiens, UniProt Q86WV6, G230A/H232R/R293Q/R71H) / O=C(Nc1cnc(N2CCC3(CC2)CC(F)(F)C3)c(Cl)c1)Nc1c[nH]c2ccc(Cl)cc12
Outgoing: 40 to 200 nM

Incoming: Lab request: please report EC50 under test system hSTING (Homo sapiens, UniProt Q86WV6, G230A/H232R/R293Q/R71H) for C[C@H]1CN(c2ncc(NC(=O)Nc3c[nH]c4ccc(Cl)cc34)cc2Cl)CCN1
Outgoing: 1000 to 5000 nM

Incoming: So what EC50 did O=C(Nc1cnc(C2CCC(F)(F)CC2)c(Cl)c1)Nc1c[nH]c2ccc(C(F)F)cc12 get with hSTING (Homo sapiens, UniProt Q86WV6, G230A/H232R/R293Q/R71H)?
Outgoing: 40 to 200 nM

Incoming: Item: O=C(Nc1cnc(C2CCC(F)(F)CC2)c(Cl)c1)Nc1c[nH]c2ccccc12 Test system: hSTING (Homo sapiens, UniProt Q86WV6, G230A/H232R/R293Q/R71H) Read-out: EC50 Value: ?
Outgoing: 40 to 200 nM

Incoming: Please provide the recorded EC50 for O=C(Nc1ccc(N2CCC(F)(F)CC2)nn1)Nc1c[nH]c2ccccc12 , tested on hSTING (Homo sapiens, UniProt Q86WV6, G230A/H232R/R293Q/R71H).
Outgoing: 1000 to 5000 nM

Incoming: State its EC50 on hSTING (Homo sapiens, UniProt Q86WV6, G230A/H232R/R293Q/R71H): COCCO[C@H]1CCN(c2ncc(NC(=O)Nc3c[nH]c4cc(F)c(F)cc34)cc2Cl)C1
Outgoing: 200 to 1000 nM

Incoming: Query EC50 on hSTING (Homo sapiens, UniProt Q86WV6, G230A/H232R/R293Q/R71H) for O=C(Nc1cnc(Cl)c(C2CCC(F)(F)CC2)c1)Nc1c[nH]c2ccc(Cl)cc12
Outgoing: 40 to 200 nM

Incoming: Item CN(C(=O)Nc1c[nH]c2ccc(Cl)cc12)c1cnc(N2CCC(F)(F)CC2)c(Cl)c1 with hSTING (Homo sapiens, UniProt Q86WV6, G230A/H232R/R293Q/R71H) - EC50?
Outgoing: 200 to 1000 nM

Incoming: Which EC50 is reported with hSTING (Homo sapiens, UniProt Q86WV6, G230A/H232R/R293Q/R71H) for this entry: O=C(Nc1cnc(N2CCN(CC(F)(F)F)CC2)c(Cl)c1)Nc1c[nH]c2ccc(F)cc12 ?
Outgoing: 40 to 200 nM

Incoming: // fetch hSTING (Homo sapiens, UniProt Q86WV6, G230A/H232R/R293Q/R71H) EC50 for O=C(Nc1cnc(N2CCC(F)(F)CC2)nc1)Nc1c[nH]c2ccc(Cl)cc12
Outgoing: 40 to 200 nM

Incoming: # get_value(readout= EC50, system= hSTING (Homo sapiens, UniProt Q86WV6, G230A/H232R/R293Q/R71H)) for CSc1ccc2[nH]cc(NC(=O)Nc3cnc(N4CCC(F)(F)CC4)c(Cl)c3)c2c1
Outgoing: 40 to 200 nM

Incoming: Report EC50 for Cc1cc(NC(=O)Nc2c[nH]c3cc(F)c(F)cc23)cnc1C1CCOCC1 tested on hSTING (Homo sapiens, UniProt Q86WV6, G230A/H232R/R293Q/R71H).
Outgoing: 200 to 1000 nM

Incoming: Item O=C(Nc1cnc(N2CC3(C2)CC(F)(F)C3)c(F)c1)Nc1c[nH]c2ccc(Cl)cc12 with hSTING (Homo sapiens, UniProt Q86WV6, G230A/H232R/R293Q/R71H) - EC50?
Outgoing: 40 to 200 nM

Incoming: Request body: readout EC50, system hSTING (Homo sapiens, UniProt Q86WV6, G230A/H232R/R293Q/R71H), query Cc1cc(NC(=O)Nc2c[nH]c3ccc(Cl)cc23)cnc1C1CCN(CC(F)(F)F)CC1 . Return the value.
Outgoing: 40 to 200 nM

Incoming: // lookup EC50 | system=hSTING (Homo sapiens, UniProt Q86WV6, G230A/H232R/R293Q/R71H) | key= CC1(C)CN(c2ncc(NC(=O)Nc3c[nH]c4cc(F)c(F)cc34)cc2Cl)CCO1
Outgoing: 40 to 200 nM

Incoming: # get_value(readout= EC50, system= hSTING (Homo sapiens, UniProt Q86WV6, G230A/H232R/R293Q/R71H)) for COCCN1CCN(c2ncc(NC(=O)Nc3c[nH]c4ccc(Cl)cc34)cc2Cl)CC1
Outgoing: 200 to 1000 nM

Incoming: State its EC50 on hSTING (Homo sapiens, UniProt Q86WV6, G230A/H232R/R293Q/R71H): C[C@H]1CN(c2ncc(NC(=O)Nc3c[nH]c4cc(F)c(F)cc34)cc2Cl)C[C@H](C)O1
Outgoing: 40 to 200 nM

Incoming: Provide the documented EC50 with hSTING (Homo sapiens, UniProt Q86WV6, G230A/H232R/R293Q/R71H) as the system for O=C(Nc1cnc(N2CCC(F)(F)CC2)cn1)Nc1c[nH]c2cc(F)c(F)cc12
Outgoing: 200 to 1000 nM

Incoming: Lookup: EC50 / hSTING (Homo sapiens, UniProt Q86WV6, G230A/H232R/R293Q/R71H) / COCCN1CCN(c2ncc(NC(=O)Nc3c[nH]c4cc(F)c(F)cc34)cc2Cl)CC1
Outgoing: 1000 to 5000 nM

Incoming: GET /values?readout=EC50&system=hSTING (Homo sapiens, UniProt Q86WV6, G230A/H232R/R293Q/R71H)&item= O=C(Nc1cnc(C2CCN(CC(F)(F)F)CC2)c(Cl)c1)Nc1c[nH]c2ccc(F)cc12
Outgoing: 40 to 200 nM

Incoming: Report EC50 for O=C(Nc1ccc(C2CC(F)(F)C2)c(F)c1)Nc1c[nH]c2ccc(F)cc12 tested on hSTING (Homo sapiens, UniProt Q86WV6, G230A/H232R/R293Q/R71H).
Outgoing: 40 to 200 nM

Incoming: What EC50 appears in the records for this molecule with hSTING (Homo sapiens, UniProt Q86WV6, G230A/H232R/R293Q/R71H)? O=C(Nc1cnc(N2CCC3(CCCCO3)CC2)c(F)c1)Nc1c[nH]c2cc(F)ccc12
Outgoing: 200 to 1000 nM

Incoming: Give EC50 (hSTING (Homo sapiens, UniProt Q86WV6, G230A/H232R/R293Q/R71H)) of the following molecule: Cc1cc(NC(=O)Nc2c[nH]c3cc(F)c(F)cc23)cnc1N1CC(F)(F)C1
Outgoing: 200 to 1000 nM

Incoming: Hello, I am looking for reported EC50 with hSTING (Homo sapiens, UniProt Q86WV6, G230A/H232R/R293Q/R71H) for O=C(Nc1cnc(N2CCC(F)(F)CC2)cn1)Nc1c[nH]c2ccc(Cl)cc12 . Could you help?
Outgoing: 40 to 200 nM

Incoming: Hi! What's the reported EC50 for O=C(Nc1cnc(N2CCC(F)(F)CC2)c(Cl)n1)Nc1c[nH]c2ccc(Cl)cc12 on hSTING (Homo sapiens, UniProt Q86WV6, G230A/H232R/R293Q/R71H)?
Outgoing: 40 to 200 nM

Source listed as patent US20230127839A1.
